B1: TPR 5TU (parent)
chain: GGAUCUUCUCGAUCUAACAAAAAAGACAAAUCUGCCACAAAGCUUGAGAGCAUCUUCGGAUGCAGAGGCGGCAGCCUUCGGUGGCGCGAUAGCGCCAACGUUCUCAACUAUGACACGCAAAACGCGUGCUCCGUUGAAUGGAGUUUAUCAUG

- Variants of: B1
- methodNotes: polymerase ribozyme fitness, log enrichment relative to wild type (log ratio); higher = more active; in vitro selection for triplet polymerase activity
This sample holds only a part of the variants without activity.
property: polymerase ribozyme fitness (log ratio)

// solved cases for polymerase ribozyme fitness (log ratio) follow
mutationNotation	readoutValue
A22C C63U G67C G84U A98C G128C U144A U151A	≤ -4.2
C14G G65U G67U G133A U135A	≤ -4.2
C8A U144C	-4.16
U61A U78A C95U C123A U146A	≤ -4.2
C76A U82G C96U	-0.697
U6A C57G A64G C76U C87A	≤ -4.2
A49C C69A C79U G83U G94U U104A	≤ -4.2
C8A G11A G50C U82A G83C	≤ -4.2
C18U U53G C54A A91G A110G C114G	≤ -4.2
U9A C57G G84U	≤ -4.2

Hi there! I need polymerase ribozyme fitness (log ratio) for each item below, if you can.
1. A40G C96U
2. U13G A24C C35A A49U C76G A91C
3. A17U C18G A41G A89C G126A C132U
4. A22U C93A
5. C54U G65A C85U A89G U146G

# output
1. -1.81
2. ≤ -4.2
3. -3.84
4. -2.34
5. -4.13

Data provenance: the RNAGym collection of RNA variant scans (doi:10.1073/pnas.2313332121)
